Examples of compounds with documented IC50 follow.
# Test system: T-24
# assay.remarks: In vitro inhibitory activity against growth of Human bladder transitional-cell carcinoma (T-24) cells
# Format: functional, cell-based
Write it as a number; the unit µg/mL goes unstated.

NC(=O)c1ncn(C2O[C@H](CO)[C@@H](O)[C@H]2O)c1C#CCCO (some centres undefined) | 15
NC(=O)c1ncn(C2O[C@H](CO)[C@@H](O)[C@H]2O)c1C#CCO (some centres undefined) | 8.8

**Q:** Form field: reported IC50 of C#Cc1c(C(N)=O)ncn1[C@@H]1O[C@H](CO)[C@@H](O)[C@H]1O
**A:** 0.88

====

# Test system: Lu-65
# assay.remarks: In vitro inhibitory activity against growth of Human gaint cell carcinoma (Lu-65) cells
# Format: functional, cell-based
readout.name: IC50 (µg/mL)
Number only, in µg/mL; omit the unit.

In the examples that follow, each entry is paired with its recorded IC50.
C#Cc1c(C(N)=O)ncn1[C@@H]1O[C@H](CO)[C@@H](O)[C@H]1O | 3.8
NC(=O)c1ncn(C2O[C@H](CO)[C@@H](O)[C@H]2O)c1C#CCCO (some centres undefined) | 15

Lab note: next compound to report on.
**Q:** Which IC50 is reported for this compound? NC(=O)c1ncn(C2O[C@H](CO)[C@@H](O)[C@H]2O)c1C#CCO (some centres undefined)
**A:** 54
